Test: S. cerevisiae RM11-1a growth modifiers, primary screen, strain RM11-1a, OD600, basal, 24 h (AID 1177);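 also: cultures grown under basal conditions with no added stressor; test concentration not given here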
Details: OD600, 24 h, higher = more signal, called active from +8 up or from −8 down
Active and inactive are the calls of the source.
readout_label: z-score

| compound | value_measured |
| --- | --- |
| CCC[C@@H]1C[C@@]1(CCC)[C@@H](NC(=O)OCc1ccccc1)c1ccc(-c2ccccc2)cc1 | 0.259 (inactive) |
| COCCCNC(=O)[C@@]1(Cc2ccccc2N=[N+]=[N-])COC(c2ccc(OCCCO)cc2)=N1 | 0.483 (inactive) |
| CCOC(=O)C[C@H]1[C@H](OC(=O)c2cc3ccccc3oc2=O)[C@@H](NC(=O)c2ccc(-c3ccccc3)cc2)c2cc(OCCCO)ccc2N1C(=O)c1ccc2ccccc2n1 | 1.54 (inactive) |
| Cc1ccc(S[C@]2(C(=O)NCC(F)(F)F)CC(=O)N(C3CCCCC3)[C@@H]2c2ccc(CO)cc2I)cc1 | -0.531 (inactive) |
| C=C(C)[C@@H]1CC=C(C(O)C2C=CC3C(=O)N(c4ccccc4)C(=O)C3N2Nc2ccccc2F)CC1 (stereo not given in full) | 2.01 (inactive) |
| O=C1OCC=C[C@H]2OC34C=CCN(Cn5nnc6ccccc65)C(=O)[C@H]3N(CCCO)C(=O)[C@@H]4[C@@H]12 (stereo not given in full) | -0.0325 (inactive) |
| CCOC(=O)C[C@H]1[C@H](OC(=O)Cc2ccc3c(c2)OCO3)[C@@H](NC(=O)Cc2ccc(OC)cc2)c2cc(OCCCO)ccc2N1C(=O)c1ccc2ccccc2n1 | -2.18 (inactive) |
| O=C(CS)NCCCCCCNC(=O)[C@H]1C[C@H]2C(=O)N[C@@H](Cc3ccccc3)C(=O)N2[C@H]1c1ccc(O)cc1 | 0.252 (inactive) |
| C=CCC(OC(C)=O)[C@@H]1[C@@H](N(Cc2cccc3ccccc23)C(=O)Cc2ccc(F)cc2)c2cc(OCCCO)ccc2N1C(=O)c1ccc2ccccc2n1 (stereo not given in full) | -0.142 (inactive) |
| C=CCOC(=O)[C@H]1[C@@H]2C(=O)O[C@@H](c3ccccc3)[C@@H](c3ccccc3)N2[C@@H](c2ccc(OCCOC(=O)[C@H]3C[C@H]4C(=O)N[C@@H](CCCCNC(C)=O)C(=O)N4[C@H]3c3ccc(O)cc3)cc2)[C@]12C(=O)Nc1ccccc12 | -2.05 (inactive) |
